Origin of values: patent US20200207859A1

# assay_target: CD74 (human), P04233
# Sequence (P04233 whole entry): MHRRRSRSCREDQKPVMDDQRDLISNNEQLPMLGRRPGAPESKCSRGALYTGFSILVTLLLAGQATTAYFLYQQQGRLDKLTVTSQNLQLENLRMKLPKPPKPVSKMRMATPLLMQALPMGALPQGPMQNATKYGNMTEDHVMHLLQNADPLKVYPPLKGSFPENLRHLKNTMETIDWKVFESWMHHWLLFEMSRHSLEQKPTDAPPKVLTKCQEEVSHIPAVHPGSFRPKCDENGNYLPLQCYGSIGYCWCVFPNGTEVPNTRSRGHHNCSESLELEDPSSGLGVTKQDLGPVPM
# experimental_details: cell-based or functional assay
Please provide measured cell killing Span, ARD (MM) cells for the entries that follow.
Write your answer as a measured quantity: the number, then the unit.

Entry under review: Conjugate E (anti-CD74 IgG-PEG4-MMAF conjugate) (antibody, V domains shown, here or on the partner: modified amino acid residue 30 (pAMF) according to Example 2, position not stated for this conjugate, linked to PEG4-MMAF) VH: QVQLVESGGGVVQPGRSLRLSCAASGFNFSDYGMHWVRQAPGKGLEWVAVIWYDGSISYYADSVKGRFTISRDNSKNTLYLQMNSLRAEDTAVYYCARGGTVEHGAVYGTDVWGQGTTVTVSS VL: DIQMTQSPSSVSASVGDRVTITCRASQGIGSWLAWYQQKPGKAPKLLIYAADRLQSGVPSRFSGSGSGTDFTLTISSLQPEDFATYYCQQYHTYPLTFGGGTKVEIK . Reported cell killing Span, ARD (MM) cells?
20%

# query: cell killing Span, ARD (MM) cells of entry Conjugate F (anti-CD74 IgG-PEG4-MMAE conjugate) (antibody, V domains shown, here or on the partner: modified amino acid residue 30 (pAMF) according to Example 2, position not stated for this conjugate, linked to PEG4-MMAE) VH: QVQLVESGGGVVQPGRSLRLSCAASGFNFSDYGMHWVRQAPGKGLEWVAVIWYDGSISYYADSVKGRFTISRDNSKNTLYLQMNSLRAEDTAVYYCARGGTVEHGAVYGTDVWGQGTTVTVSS VL: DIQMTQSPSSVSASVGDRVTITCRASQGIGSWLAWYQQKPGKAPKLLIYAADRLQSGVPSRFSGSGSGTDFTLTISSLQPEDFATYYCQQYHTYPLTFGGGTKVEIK
73%
